Provenance of the data: patent US20250011363A1

Exercise: state measured Binding affinity for each of the binders provided.
target: acetylcholine receptor; assay: SPR, AchR immobilised on chip, peptide at 10 uM
Lab book: enter the figure in RU, no units written.

## Task State the recorded Binding affinity for this entry: KVVTRK [6mer-2-311]
## Result 147

## Task Can you check RSLSRR [6mer-2-297] next?
## Result 139

## Task Next record, please: KSRLRK [6mer-2-288]
## Result 122

## Task Repeat with RRYRKR [6mer-2-291]
## Result 154

## Task One more binder: KVFTKR [6mer-2-303]
## Result 126

## Task Next binder: KRYQRK [6mer-2-328]
## Result 131

## Task // same read-out, input: RQQYRK [6mer-2-282]
## Result 151

## Task Query KQFYKK [6mer-2-305] next
## Result 154

## Task And for RQLCKR [6mer-2-292] ?
## Result 121

## Task One more binder: RQFQKR [6mer-2-306]
## Result 141

## Task Next binder: KWRTKR [6mer-2-312]
## Result 121

## Task // next record RRQRRR [6mer-2-315]
## Result 139

## Task Can you handle RLLQKK [6mer-2-289] next?
## Result 146

## Task Another binder: KWRSRK [6mer-2-272]
## Result 154

## Task # iterate: RQVRKR [6mer-2-301]
## Result 122

## Task Next: KWFYRK [6mer-2-304]
## Result 144

## Task Also RLRYRK [6mer-2-277] , if possible.
## Result 128
